Listed next: entries and their corresponding IC50.
Molecular target: TBK1 (Homo sapiens)
Construct: His-tag; made in house; host or cells: Sf9 insect cells
Sequence (Q9UHD2 whole entry): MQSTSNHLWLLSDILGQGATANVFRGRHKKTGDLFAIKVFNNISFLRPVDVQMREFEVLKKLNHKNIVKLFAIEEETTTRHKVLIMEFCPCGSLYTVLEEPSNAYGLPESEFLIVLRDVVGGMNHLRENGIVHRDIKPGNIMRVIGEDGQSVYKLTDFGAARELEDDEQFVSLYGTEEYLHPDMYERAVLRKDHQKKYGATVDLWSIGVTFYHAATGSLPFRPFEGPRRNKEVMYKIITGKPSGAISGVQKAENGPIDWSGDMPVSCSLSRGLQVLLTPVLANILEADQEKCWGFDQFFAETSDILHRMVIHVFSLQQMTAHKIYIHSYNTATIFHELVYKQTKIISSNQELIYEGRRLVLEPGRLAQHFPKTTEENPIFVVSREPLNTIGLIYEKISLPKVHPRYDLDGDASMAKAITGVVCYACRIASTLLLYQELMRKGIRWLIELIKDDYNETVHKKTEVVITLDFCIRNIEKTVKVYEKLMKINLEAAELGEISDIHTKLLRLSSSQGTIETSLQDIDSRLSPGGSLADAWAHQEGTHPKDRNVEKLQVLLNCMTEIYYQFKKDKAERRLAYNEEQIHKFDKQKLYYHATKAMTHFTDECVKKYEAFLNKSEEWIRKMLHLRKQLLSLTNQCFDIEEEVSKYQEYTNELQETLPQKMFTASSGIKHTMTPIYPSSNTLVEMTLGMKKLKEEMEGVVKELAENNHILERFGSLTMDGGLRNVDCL
Assay: In-vitro TBK1 kinase assay ([γ33]ATP filter-plate)
Assay type: biochemical
Conditions: text bins; read-out: IC50 for inhibition of the kinase activity of TBK1
value.type: IC50

N#Cc1cc(-c2ccnc(Nc3ccc(N4CCOCC4)c(Cl)c3)n2)ccc1OC1CCOCC1 [compound 374] :: < 10 nM
N#Cc1cc(-c2ccnc(Nc3ccc(N4CCOCC4)cc3)n2)ccc1OCCNC=O [Example 230] :: < 10 nM
N#Cc1cccc(-c2ccnc(Nc3cccc(S(N)(=O)=O)c3)n2)c1 [compound 373] :: 10 to 100 nM
COc1cc(Nc2nccc(-c3ccc(NC(=O)C(C)C)c(C#N)c3)n2)ccc1N1CCOCC1 [Example 75] :: < 10 nM
N#Cc1cc(-c2ccnc(Nc3cccc(N)c3)n2)ccc1OC1CCOCC1 [compound 393] :: < 10 nM
CC(C)N1CCN(CCOc2cc(Nc3nccc(-c4ccc(OC5CCOCC5)c(C#N)c4)n3)ccc2F)CC1 [compound 650] :: < 10 nM
CC1(COc2ccc(-c3ccnc(Nc4ccc(N5CCOCC5)cc4)n3)cc2C#N)COC1 [compound 444] :: < 10 nM
COc1ccc(Nc2nccc(-c3ccc(OC4CCOCC4)c(C#N)c3)n2)cc1OCCCN1CCNCC1 [compound 526] :: < 10 nM
CC(C)C(=O)Nc1ccc(-c2ccnc(Nc3cccc(CCN4CCOCC4)c3)n2)cc1C#N [compound 466] :: < 10 nM
N#Cc1cc(-c2ccnc(Nc3ccc(N4CCOCC4)cc3)n2)ccc1NC(=O)C1CC1 [Example 91] :: < 10 nM
COc1ccc(-c2ccnc(Nc3ccc(S(=O)(=O)NCCCN(C)C)c(OC)c3)n2)cc1C#N [compound 375] :: 10 to 100 nM
COc1ccc(Nc2nccc(-c3ccc(OC(C)(C)C)c(C#N)c3)n2)cc1OC [Example 169] :: 10 to 100 nM
COc1ccc(-c2ccnc(Nc3cc(CN(C)CC(=O)N(C)C)c(OC)c(OC)c3)n2)cc1C#N [Example 115] :: 10 to 100 nM
N#Cc1cc(-c2ccnc(Nc3ccc(F)c(OCCN)c3)n2)ccc1OCC1CC1 [compound 612] :: < 10 nM
COc1ccc(Nc2nccc(-c3ccc(NC(C)=O)c(C#N)c3)n2)cc1OC [Example 136] :: 10 to 100 nM
COc1cc(Nc2nccc(-c3ccc(OC4CCN(C(=O)[C@H](C)O)CC4)c(C#N)c3)n2)ccc1OCCOCCN [Example 105] :: 10 to 100 nM
CC(C)C(=O)Nc1ccc(-c2ccnc(Nc3cccc(OCCN4CCOCC4)c3)n2)cc1C#N [compound 432] :: 10 to 100 nM
COc1ccc(-c2ccnc(Nc3ccc(N4CCOCC4)c(OC)c3)n2)cc1C#N [Example 157] :: < 10 nM
CNc1ccc(-c2ccnc(Nc3ccc(OC)c(OC)c3)n2)cc1C#N [Example 107] :: < 10 nM
Cc1ccc(-c2ccnc(Nc3ccc(N4CCOCC4)cc3)n2)cc1C#N [Example 269] :: < 10 nM
COc1ccc(-c2ccnc(Nc3ccc(N4CCN(C)CC4)cc3)n2)cc1C#N [compound 297] :: < 10 nM
CCN(CC)CCOc1cc(Nc2nccc(-c3ccc(OC4CCOCC4)c(C#N)c3)n2)ccc1C [compound 618] :: < 10 nM
COc1ccc(Nc2nccc(-c3ccc(OC4CCOCC4)c(C#N)c3)n2)cc1OCCCC1CCN(C(C)C)CC1 [compound 520] :: < 10 nM
COc1cc(Nc2nccc(-c3ccc(OC4CCN(C(=O)OC(C)(C)C)CC4)c(C#N)c3)n2)ccc1N1CCOCC1 [Example 263] :: 100 to 500 nM
CCN(CC)CCN(CC)C(=O)Cc1cccc(Nc2nccc(-c3ccc(OC4CCOCC4)c(C#N)c3)n2)c1 [compound 409] :: < 10 nM
CC(=O)NCc1ccc(Nc2nccc(-c3ccc(OC4CCOCC4)c(C#N)c3)n2)cc1 [compound 492] :: < 10 nM
CC(C)Oc1ccc(-c2ccnc(Nc3ccc(N4CCOCC4)cc3)n2)cc1C#N [Example 191] :: < 10 nM
N#Cc1cc(-c2ccnc(Nc3ccccc3)n2)ccc1OC1CCOCC1 [Example 12] :: 10 to 100 nM
CS(=O)(=O)N1CCC(Nc2ccc(Nc3nccc(-c4ccc(OC5CCOCC5)c(C#N)c4)n3)cc2)CC1 [Example 171] :: < 10 nM
COc1ccc(-c2ccnc(Nc3ccc(CN(C)C)cc3)n2)cc1C#N [Example 45] :: 10 to 100 nM
CC1CC1C(=O)Nc1ccc(-c2ccnc(Nc3ccc(N4CCOCC4)cc3)n2)cc1C#N (centres unmarked) [compound 415] :: < 10 nM
N#Cc1cc(-c2ccnc(Nc3ccc(N4CCOCC4)cc3)n2)ccc1OC1CCN(S(N)(=O)=O)CC1 [Example 80] :: < 10 nM
